Assay: Lipophilicity, log P of the compound
Type: physicochemical
Details: octanol/water
Metric name: logP

| Input smiles | Value observed |
| --- | --- |
| O/N=C1\c2ccccc2-c2nc3ccccc3nc21 | 4.04 |
| O=c1c2ccccc2nc2n1-c1ccccc1/C2=N\O | 2.92 |

* * *

Biological target: Mitogen-activated protein kinase 9 (Homo sapiens)
Sequence (P45984 whole entry, the tested form may be a part): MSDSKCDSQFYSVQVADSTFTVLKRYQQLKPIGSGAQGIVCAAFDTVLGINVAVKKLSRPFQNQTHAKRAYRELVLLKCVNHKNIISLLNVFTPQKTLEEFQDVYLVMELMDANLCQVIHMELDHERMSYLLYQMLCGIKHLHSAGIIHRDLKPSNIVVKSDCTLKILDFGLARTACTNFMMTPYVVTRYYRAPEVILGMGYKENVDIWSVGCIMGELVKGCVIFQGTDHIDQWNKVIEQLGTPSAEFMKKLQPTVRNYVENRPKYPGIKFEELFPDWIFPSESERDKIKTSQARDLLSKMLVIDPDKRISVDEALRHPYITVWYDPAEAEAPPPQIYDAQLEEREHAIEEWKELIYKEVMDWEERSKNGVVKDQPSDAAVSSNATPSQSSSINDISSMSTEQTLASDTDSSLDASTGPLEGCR
Experiment: Binding affinity to human full-length JNK2 (M1 to Q382 residues) expressed in HEK293 cells measured after 1 hr by Kinomescan method
pKd: −log10 of the molar value.
Metric name: pKd

Worked examples follow.
| Input smiles | Metric name | Value observed |
| --- | --- | --- |
| Cc1ccc2nc3c(nc2c1)-c1ccccc1/C3=N/O | pKd | 6.08 |
| OCCO/N=C1\c2ccccc2-c2nc3ccccc3nc21 | pKd | 5.90 |
| Cc1cccc2nc3c(nc12)-c1ccccc1/C3=N/O | pKd | 5.60 |

P. Cc1cc2nc3c(nc2cc1C)-c1ccccc1/C3=N/O
Q. O=[N+]([O-])c1ccc2nc3c(nc2c1)/C(=N\O)c1ccccc1-3
Query: API: POST /compare with P and Q ; response names the item with higher pKd. Use the label to indicate which entry you chose.
Result: P

Values from ChEMBL document CHEMBL4325855
